system: Induced myeloid leukemia cell differentiation protein Mcl-1 [171-327] (Homo sapiens, UniProt Q07820)
Construct: 171-327
Sequence (Q07820 171-327): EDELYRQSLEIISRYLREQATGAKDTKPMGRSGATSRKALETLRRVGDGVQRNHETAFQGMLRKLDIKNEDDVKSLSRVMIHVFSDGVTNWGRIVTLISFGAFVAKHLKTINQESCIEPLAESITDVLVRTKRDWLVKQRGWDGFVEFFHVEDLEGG
assay text: Time-Resolved Fluorescence Resonance Energy Transfer (TR-FRET) Assay
We label by threshold. Values of IC50 strictly beneath 0.1 nM are true. Values of 0.1 nM and up are false.

CCO[C@]1(CN2CCN(C(COC)COC)CC2)/C=C/C[C@H](C)[C@@H](C)S(=O)(=O)NC(=O)c2ccc3c(c2)N(C[C@@H]2CC[C@H]21)C[C@@]1(CCCc2cc(Cl)ccc21)CO3 | false
CO[C@@]1(CC(=O)NCc2ncco2)/C=C/C[C@H](C)[C@@H](C)S(=O)(=O)NC(=O)c2ccc3c(c2)N(C[C@@H]2CC[C@H]21)C[C@@]1(CCCc2cc(Cl)ccc21)CO3 | true
CO[C@@]1(CN2CCN(CC(CO)CO)CC2)/C=C/C[C@H](C)[C@@H](C)S(=O)(=O)NC(=O)c2ccc3c(c2)N(C[C@@H]2CC[C@H]21)C[C@@]1(CCCc2cc(Cl)ccc21)CO3 | false
C[C@@H]1[C@@H](C)C/C=C/[C@@](O)(c2ccc(F)nc2)[C@@H]2CC[C@H]2CN2C[C@@]3(CCCc4cc(Cl)ccc43)COc3ccc(cc32)C(=O)NS1(=O)=O (single isomer, unassigned) | false
CO[C@@]1(CC(=O)NC(C)(C)C(=O)O)/C=C/C[C@H](C)[C@@H](C)S(=O)(=O)NC(=O)c2ccc3c(c2)N(C[C@@H]2CC[C@H]21)C[C@@]1(CCCc2cc(Cl)ccc21)CO3 | true

Please let me know if C[C@@H]1[C@@H](C)C/C=C/[C@](O)(C#CCCc2ccccn2)[C@@H]2CC[C@H]2CN2C[C@@]3(CCCc4cc(Cl)ccc43)COc3ccc(cc32)C(=O)NS1(=O)=O shows IC50 below 0.1 nM.
true

Please let me know if CO[C@@]1(c2cccnn2)/C=C/C[C@H](C)[C@@H](C)S(=O)(=O)N(C)C(=O)c2ccc3c(c2)N(C[C@@H]2CC[C@H]21)C[C@@]1(CCCc2cc(Cl)ccc21)CO3 shows IC50 below 0.1 nM.
false

Please let me know if COC(=O)C(C)(C)NC(=O)C[C@]1(OC)/C=C/C[C@H](C)[C@@H](C)S(=O)(=O)NC(=O)c2ccc3c(c2)N(C[C@@H]2CC[C@H]21)C[C@@]1(CCCc2cc(Cl)ccc21)CO3 shows IC50 below 0.1 nM.
false

Please let me know if CO[C@]1(c2cccc(F)n2)/C=C/C[C@H](C)[C@@H](C)S(=O)(=O)NC(=O)c2ccc3c(c2)N(C[C@@H]2CC[C@H]21)C[C@@]1(CCCc2cc(Cl)ccc21)CO3 shows IC50 below 0.1 nM.
false

Please let me know if CO[C@@]1(CN2CCN([C@H]3CCOC(=O)C3)CC2)/C=C/C[C@H](C)[C@@H](C)S(=O)(=O)NC(=O)c2ccc3c(c2)N(C[C@@H]2CC[C@H]21)C[C@@]1(CCCc2cc(Cl)ccc21)CO3 shows IC50 below 0.1 nM.
true

Please let me know if CO[C@@]1(CN2CCC(N3CCOCC3)CC2)/C=C/C[C@H](C)[C@@H](C)S(=O)(=O)NC(=O)c2ccc3c(c2)N(C[C@@H]2CC[C@H]21)C[C@@]1(CCCc2cc(Cl)ccc21)CO3 shows IC50 below 0.1 nM.
false

Please let me know if COCCN(CCOC)C1CCN(C[C@]2(OC)/C=C/C[C@H](C)[C@@H](C)S(=O)(=O)NC(=O)c3ccc4c(c3)N(C[C@@H]3CC[C@H]32)C[C@@]2(CCCc3cc(Cl)ccc32)CO4)CC1 shows IC50 below 0.1 nM.
false

Please let me know if CO[C@]1(CN2CCN(C3(C)COC3)CC2)/C=C/C[C@H](C)[C@@H](C)S(=O)(=O)NC(=O)c2ccc3c(c2)N(C[C@@H]2CC[C@H]21)C[C@@]1(CCCc2cc(Cl)ccc21)CO3 shows IC50 below 0.1 nM.
true

Please let me know if CO[C@@]1(CN2CCN([C@H](CCO)CC(=O)O)CC2)/C=C/C[C@H](C)[C@@H](C)S(=O)(=O)NC(=O)c2ccc3c(c2)N(C[C@@H]2CC[C@H]21)C[C@@]1(CCCc2cc(Cl)ccc21)CO3 shows IC50 below 0.1 nM.
true

Please let me know if CO[C@@]1(CC(=O)N(C)C)/C=C/C[C@H](C)[C@@H](C)S(=O)(=O)NC(=O)c2ccc3c(c2)N(C[C@@H]2CC[C@H]21)C[C@@]1(CCCc2cc(Cl)ccc21)CO3 shows IC50 below 0.1 nM.
false

Please let me know if COCC(COC)N1CCN(C[C@]2(OC)/C=C/C[C@H](C)[C@@H](C)S(=O)(=O)NC(=O)c3ccc4c(c3)N(C[C@@H]3CC[C@H]32)C[C@@]2(CCCc3cc(Cl)ccc32)CO4)CC1 shows IC50 below 0.1 nM.
false

Please let me know if COC(=O)CNC(=O)C[C@]1(OC)/C=C/C[C@H](C)[C@@H](C)S(=O)(=O)NC(=O)c2ccc3c(c2)N(C[C@@H]2CC[C@H]21)C[C@@]1(CCCc2cc(Cl)ccc21)CO3 shows IC50 below 0.1 nM.
true
